Listing: protein stability index of selected sequences
Test system: Saccharomyces cerevisiae
Assay Summary: protein stability index of tFT-peptide fusion (C-terminal peptide) (PSI (0-1 scale)); higher = more stable (slower turnover)
Assay Conditions: genetic background: wild type; temperature: 30 C
Measured Quantity: protein stability index

>  <Sequence Input>
CPPRPLHSPLPP

>  <Target Desc>
Saccharomyces cerevisiae

>  <Meas Value>
0.694

$$$$
>  <Sequence Input>
IGHVVTWCFGRV

>  <Target Desc>
Saccharomyces cerevisiae

>  <Meas Value>
0.69

$$$$
>  <Sequence Input>
PLHSLPSRTPPS

>  <Target Desc>
Saccharomyces cerevisiae

>  <Meas Value>
0.709

$$$$
>  <Sequence Input>
FLCLVASLFRFA

>  <Target Desc>
Saccharomyces cerevisiae

>  <Meas Value>
0.585

$$$$
>  <Sequence Input>
GGRHGSSRTGGY

>  <Target Desc>
Saccharomyces cerevisiae

>  <Meas Value>
0.696

$$$$
>  <Sequence Input>
GLYRQRVCLRSG

>  <Target Desc>
Saccharomyces cerevisiae

>  <Meas Value>
0.61

$$$$
>  <Sequence Input>
YLGRDYYVVLWG

>  <Target Desc>
Saccharomyces cerevisiae

>  <Meas Value>
0.751

$$$$
>  <Sequence Input>
VGVCGSSGRVGG

>  <Target Desc>
Saccharomyces cerevisiae

>  <Meas Value>
0.7

$$$$
>  <Sequence Input>
PPVAPTPFPPPS

>  <Target Desc>
Saccharomyces cerevisiae

>  <Meas Value>
0.684

$$$$
>  <Sequence Input>
GNFAGLTRDRGP

>  <Target Desc>
Saccharomyces cerevisiae

>  <Meas Value>
0.674

$$$$
>  <Sequence Input>
AAGCSSGQAQFG

>  <Target Desc>
Saccharomyces cerevisiae

>  <Meas Value>
0.727

$$$$
>  <Sequence Input>
AVCVSVCGRLLV

>  <Target Desc>
Saccharomyces cerevisiae

>  <Meas Value>
0.549

$$$$
>  <Sequence Input>
PSGFLFPLSPPA

>  <Target Desc>
Saccharomyces cerevisiae

>  <Meas Value>
0.698

$$$$
>  <Sequence Input>
ALSPPPSLRLPF

>  <Target Desc>
Saccharomyces cerevisiae

>  <Meas Value>
0.739

$$$$
>  <Sequence Input>
ENEKKKKNKNKN

>  <Target Desc>
Saccharomyces cerevisiae

>  <Meas Value>
0.7

$$$$
>  <Sequence Input>
TRTQTLAGILGG

>  <Target Desc>
Saccharomyces cerevisiae

>  <Meas Value>
0.677

$$$$
>  <Sequence Input>
TGCGSRSSRTKT

>  <Target Desc>
Saccharomyces cerevisiae

>  <Meas Value>
0.864

$$$$
>  <Sequence Input>
PPRVSLLSPPPP

>  <Target Desc>
Saccharomyces cerevisiae

>  <Meas Value>
0.693

$$$$
>  <Sequence Input>
SPRPSPPPPSHA

>  <Target Desc>
Saccharomyces cerevisiae

>  <Meas Value>
0.636

$$$$
>  <Sequence Input>
SVLRWAVLGQTR

>  <Target Desc>
Saccharomyces cerevisiae

>  <Meas Value>
0.728

$$$$
>  <Sequence Input>
YPGSCFLDTGIW

>  <Target Desc>
Saccharomyces cerevisiae

>  <Meas Value>
0.667

$$$$
>  <Sequence Input>
CWCRVGSSGCVR

>  <Target Desc>
Saccharomyces cerevisiae

>  <Meas Value>
0.668

$$$$
>  <Sequence Input>
PWGGVLGWGLVG

>  <Target Desc>
Saccharomyces cerevisiae

>  <Meas Value>
0.608

$$$$
>  <Sequence Input>
RRGASWDEDAGS

>  <Target Desc>
Saccharomyces cerevisiae

>  <Meas Value>
0.719

$$$$
>  <Sequence Input>
KKKKKKKKKNKK

>  <Target Desc>
Saccharomyces cerevisiae

>  <Meas Value>
0.679

$$$$
>  <Sequence Input>
VCGALRWCGGPD

>  <Target Desc>
Saccharomyces cerevisiae

>  <Meas Value>
0.705

$$$$
>  <Sequence Input>
GIFSGTDRNLVC

>  <Target Desc>
Saccharomyces cerevisiae

>  <Meas Value>
0.707

$$$$
>  <Sequence Input>
RPGGSRTEGRRT

>  <Target Desc>
Saccharomyces cerevisiae

>  <Meas Value>
0.683

$$$$
>  <Sequence Input>
DIRLWISCTLWF

>  <Target Desc>
Saccharomyces cerevisiae

>  <Meas Value>
0.324

$$$$
>  <Sequence Input>
LPPHPPPCPPLL

>  <Target Desc>
Saccharomyces cerevisiae

>  <Meas Value>
0.733

$$$$
>  <Sequence Input>
CGYVSGGWAGNV

>  <Target Desc>
Saccharomyces cerevisiae

>  <Meas Value>
0.691

$$$$
>  <Sequence Input>
QRKGNLTKTEPV

>  <Target Desc>
Saccharomyces cerevisiae

>  <Meas Value>
0.676

$$$$
>  <Sequence Input>
NKNNITKKRKKD

>  <Target Desc>
Saccharomyces cerevisiae

>  <Meas Value>
0.749

$$$$
>  <Sequence Input>
TRDATESLVERV

>  <Target Desc>
Saccharomyces cerevisiae

>  <Meas Value>
0.694

$$$$
>  <Sequence Input>
FFSGYVVSTRHM

>  <Target Desc>
Saccharomyces cerevisiae

>  <Meas Value>
0.702

$$$$
>  <Sequence Input>
KKSKDKRNPKKK

>  <Target Desc>
Saccharomyces cerevisiae

>  <Meas Value>
0.692

$$$$
>  <Sequence Input>
LCSCAVVICCSL

>  <Target Desc>
Saccharomyces cerevisiae

>  <Meas Value>
0.377

$$$$
>  <Sequence Input>
IVFGWGVEWGRL

>  <Target Desc>
Saccharomyces cerevisiae

>  <Meas Value>
0.69

$$$$
>  <Sequence Input>
LPSPTTPRSPPP

>  <Target Desc>
Saccharomyces cerevisiae

>  <Meas Value>
0.729

$$$$
>  <Sequence Input>
WPFHADPPPPVP

>  <Target Desc>
Saccharomyces cerevisiae

>  <Meas Value>
0.697

$$$$
>  <Sequence Input>
AGPPPIFGHHTQ

>  <Target Desc>
Saccharomyces cerevisiae

>  <Meas Value>
0.765

$$$$
>  <Sequence Input>
RPVRYVLSGGCI

>  <Target Desc>
Saccharomyces cerevisiae

>  <Meas Value>
0.68

$$$$
>  <Sequence Input>
ACGDRGGRCSEG

>  <Target Desc>
Saccharomyces cerevisiae

>  <Meas Value>
0.678

$$$$
>  <Sequence Input>
RPYKINNNIEVK

>  <Target Desc>
Saccharomyces cerevisiae

>  <Meas Value>
0.676

$$$$
>  <Sequence Input>
PPLLLRFLTIHL

>  <Target Desc>
Saccharomyces cerevisiae

>  <Meas Value>
0.571

$$$$
>  <Sequence Input>
CFVLPWHVPFGF

>  <Target Desc>
Saccharomyces cerevisiae

>  <Meas Value>
0.715

$$$$
>  <Sequence Input>
QCGYGKLSGGSQ

>  <Target Desc>
Saccharomyces cerevisiae

>  <Meas Value>
0.672

$$$$
>  <Sequence Input>
YTTFNLSQTLNG

>  <Target Desc>
Saccharomyces cerevisiae

>  <Meas Value>
0.674

$$$$
>  <Sequence Input>
CSSVRRRSWCFS

>  <Target Desc>
Saccharomyces cerevisiae

>  <Meas Value>
0.846

$$$$
>  <Sequence Input>
SGAGRRRGGARE

>  <Target Desc>
Saccharomyces cerevisiae

>  <Meas Value>
0.651

$$$$
>  <Sequence Input>
SPGSPLSPPAPP

>  <Target Desc>
Saccharomyces cerevisiae

>  <Meas Value>
0.62

$$$$
>  <Sequence Input>
PLPEQIEATTAS

>  <Target Desc>
Saccharomyces cerevisiae

>  <Meas Value>
0.692

$$$$
>  <Sequence Input>
GRRTNLCERLAL

>  <Target Desc>
Saccharomyces cerevisiae

>  <Meas Value>
0.722

$$$$
>  <Sequence Input>
FPQSDFFLLILS

>  <Target Desc>
Saccharomyces cerevisiae

>  <Meas Value>
0.549

$$$$
>  <Sequence Input>
GGIRLRVRFFVI

>  <Target Desc>
Saccharomyces cerevisiae

>  <Meas Value>
0.247

$$$$
>  <Sequence Input>
WGGVRRHGVGGS

>  <Target Desc>
Saccharomyces cerevisiae

>  <Meas Value>
0.648

$$$$
>  <Sequence Input>
GDWSYIVGIKYY

>  <Target Desc>
Saccharomyces cerevisiae

>  <Meas Value>
0.626

$$$$
>  <Sequence Input>
WSGNYSNITRYI

>  <Target Desc>
Saccharomyces cerevisiae

>  <Meas Value>
0.66

$$$$
>  <Sequence Input>
RLFGFGEQKIEE

>  <Target Desc>
Saccharomyces cerevisiae

>  <Meas Value>
0.695

$$$$
>  <Sequence Input>
CVGLIGVINGGL

>  <Target Desc>
Saccharomyces cerevisiae

>  <Meas Value>
0.558

$$$$
>  <Sequence Input>
TSPLSPPLPSFR

>  <Target Desc>
Saccharomyces cerevisiae

>  <Meas Value>
0.696

$$$$
>  <Sequence Input>
RNKSRMWKEIIR

>  <Target Desc>
Saccharomyces cerevisiae

>  <Meas Value>
0.657

$$$$
>  <Sequence Input>
VLLCFFLGIVGF

>  <Target Desc>
Saccharomyces cerevisiae

>  <Meas Value>
0.396

$$$$
>  <Sequence Input>
PVSSPPRPAPSP

>  <Target Desc>
Saccharomyces cerevisiae

>  <Meas Value>
0.677

$$$$
>  <Sequence Input>
GRGVDGRSGCLL

>  <Target Desc>
Saccharomyces cerevisiae

>  <Meas Value>
0.673

$$$$
>  <Sequence Input>
NKKKKENTKKRK

>  <Target Desc>
Saccharomyces cerevisiae

>  <Meas Value>
0.721

$$$$
>  <Sequence Input>
LYHCFRCYYMPW

>  <Target Desc>
Saccharomyces cerevisiae

>  <Meas Value>
0.637

$$$$
>  <Sequence Input>
CSLFRCSKVVLG

>  <Target Desc>
Saccharomyces cerevisiae

>  <Meas Value>
0.672

$$$$
>  <Sequence Input>
PLSYRRFTRLPR

>  <Target Desc>
Saccharomyces cerevisiae

>  <Meas Value>
0.68

$$$$
>  <Sequence Input>
KKTPKKKHKKKR

>  <Target Desc>
Saccharomyces cerevisiae

>  <Meas Value>
0.679

$$$$
>  <Sequence Input>
RKDDRPYIRETS

>  <Target Desc>
Saccharomyces cerevisiae;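 also: PSI is a weighted mean of sequencing reads over stability bins, variants kept only with over 10 reads, mCherry proximal and sfGFP distal, peptide attached via GGGS linker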

>  <Meas Value>
0.701

$$$$
